Molecular target: T1, Human CD3eg linker (human)
T1 construct: Single chain: epsilon and gamma subunits of human CD3 joined by a 29-mer linker, Flag-tag at the C-terminus; also called recombinant human CD3
T1 chain: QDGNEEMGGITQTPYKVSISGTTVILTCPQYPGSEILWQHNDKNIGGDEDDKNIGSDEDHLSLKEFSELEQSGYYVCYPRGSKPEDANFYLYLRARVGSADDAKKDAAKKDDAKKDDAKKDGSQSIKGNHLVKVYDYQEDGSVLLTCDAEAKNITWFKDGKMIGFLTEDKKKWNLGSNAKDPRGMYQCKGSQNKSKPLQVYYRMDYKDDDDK
Experiment: Biacore SPR, vs template H183/L072
metric: fold change of affinity (fold)
Dear colleague, please return just the value in fold, with no unit written.

Solved entries:
H183/L072 VH A98M (antibody, name in Kabat numbering, V domains shown) VH: QVQLVESGGGLVQPGRSLRLSCAASGFTFSNAWMHWVRQAPGKGLEWVAQIKDKGNAYAAYYAPSVKGRFTISRDDSKNSIYLQMNSLKTEDTAVYYCHYVHYMSASTVLPAFGVDAWGQGTTVTVSS VL: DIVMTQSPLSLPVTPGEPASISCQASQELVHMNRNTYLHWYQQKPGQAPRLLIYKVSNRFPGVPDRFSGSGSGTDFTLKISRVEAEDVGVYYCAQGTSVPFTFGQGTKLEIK	1
H183/L072 VH N53M (antibody, name in Kabat numbering, V domains shown) VH: QVQLVESGGGLVQPGRSLRLSCAASGFTFSNAWMHWVRQAPGKGLEWVAQIKDKGMAYAAYYAPSVKGRFTISRDDSKNSIYLQMNSLKTEDTAVYYCHYVHYASASTVLPAFGVDAWGQGTTVTVSS VL: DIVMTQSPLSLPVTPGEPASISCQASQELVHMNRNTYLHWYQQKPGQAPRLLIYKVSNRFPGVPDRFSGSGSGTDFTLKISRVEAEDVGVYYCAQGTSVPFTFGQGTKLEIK	0.5

Could you now consider this next binder?
Problem: Determine its reported fold change of affinity: H183/L072 VH F29R (antibody, name in Kabat numbering, V domains shown) VH: QVQLVESGGGLVQPGRSLRLSCAASGFTRSNAWMHWVRQAPGKGLEWVAQIKDKGNAYAAYYAPSVKGRFTISRDDSKNSIYLQMNSLKTEDTAVYYCHYVHYASASTVLPAFGVDAWGQGTTVTVSS VL: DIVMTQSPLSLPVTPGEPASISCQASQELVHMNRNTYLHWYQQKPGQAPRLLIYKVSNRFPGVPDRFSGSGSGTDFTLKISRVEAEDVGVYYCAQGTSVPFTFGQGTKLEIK
Result: 0
